All values here come from ChEMBL document CHEMBL1123680.

# protocolDetails: Percent biliary excretion property by administering intravenously to rats was reported as amount of unchanged form of compound detected in bile samples collected at 0-1 hr after the treatment.
# conditionLabel: rat, iv
reportedProperty: dose excreted (%)
Numbers only; they are read as %.

Completed entries (count: 3):
molecule | dose excreted, %
CC(C)c1ncc([N+](=O)[O-])n1C [IPRONIDAZOLE] | 2.99
Cc1ncc([N+](=O)[O-])n1CC(O)CCl (centres undefined) [ORNIDAZOLE] | 1.68
COC(=S)NCCn1c([N+](=O)[O-])cnc1C [CARNIDAZOLE] | 1.91

Task: Consider the molecule O=[N+]([O-])c1c[nH]cn1 . State its measured dose excreted.
Output: 8.71
